Entries and their measured interaction score follow.
Test system: T1, 4H780-AA
T1 chain: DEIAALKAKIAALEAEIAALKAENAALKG
Experimental details: two-hybrid library CCmax;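 note: natural log of median RNA to DNA barcode read ratio; higher means stronger binding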
Conditions: mean of both orientations
Readout name: interaction score

- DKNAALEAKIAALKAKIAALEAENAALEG [4H3427-AA]: -1.61
- DEIAALEAKNAALEAKIAALKAKIAALEG [4H429-AA]: -1.7
- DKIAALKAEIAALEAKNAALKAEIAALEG [4H2617-AA]: -1.9
- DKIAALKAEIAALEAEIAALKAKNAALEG [4H2575-AA]: 0.14
